Origin of the recorded values: paper PMC11866022

- Assay Protocol: Lipophilicity, chromatographic hydrophobicity index on C18 (Valko protocol)
- Type: physicochemical
- Conditions Used: pH 10.5
Value Kind: CHI C18 pH 10.5
Answers are plain numbers.

Compound	Recorded Result
CC1NC(NCCCCCCNS(=O)(=O)c2cccc3ccccc23)=Nc2cccc(F)c21 (stereo not drawn)	93.1

Count: 3. Required value per item: CHI C18 pH 10.5.
1. O=S1(=O)c2cccc3cccc(c23)N1CCCCCCNC1=Nc2ccccc2CN1
2. O=S(=O)(NCCNc1ncc2ccccc2n1)c1cccc2ccccc12
3. O=S(=O)(NCCCCCCNc1ncc2ccccc2n1)c1cccc2ccccc12

RESULT:
1. 127
2. 87.1
3. 107.2

Count: 4. Required value per item: CHI C18 pH 10.5.
1. CC1NC(NCCCCCCNS(=O)(=O)c2c(Cl)ccc3ccccc23)=Nc2ccccc21 (stereo not drawn)
2. O=S(=O)(NCCNC1=Nc2ccccc2CN1)c1cccc2ccccc12
3. CC1NC(NCCCCCCNS(=O)(=O)c2cccc3ccccc23)=Nc2ccccc21 (stereo not drawn)
4. CC1NC(NCCCCCCNS(=O)(=O)c2cccc3ccccc23)=Nc2c(Cl)cc(Cl)cc21 (stereo not drawn)

RESULT:
128.8
101.9
120.4
121.8

QUERY: Using the record for `O=S(=O)(c1cccc2ccccc12)N1CCN(CCNC2=Nc3ccccc3CN2)CC1` , report its CHI C18 pH 10.5.
RESULT: 138.2

###

- Assayed Target: 5-HT6 (Homo sapiens, UniProt P50406)
- Construct: expressed in transfected cells; host or cells: HEK293
- Sequence (P50406 whole entry): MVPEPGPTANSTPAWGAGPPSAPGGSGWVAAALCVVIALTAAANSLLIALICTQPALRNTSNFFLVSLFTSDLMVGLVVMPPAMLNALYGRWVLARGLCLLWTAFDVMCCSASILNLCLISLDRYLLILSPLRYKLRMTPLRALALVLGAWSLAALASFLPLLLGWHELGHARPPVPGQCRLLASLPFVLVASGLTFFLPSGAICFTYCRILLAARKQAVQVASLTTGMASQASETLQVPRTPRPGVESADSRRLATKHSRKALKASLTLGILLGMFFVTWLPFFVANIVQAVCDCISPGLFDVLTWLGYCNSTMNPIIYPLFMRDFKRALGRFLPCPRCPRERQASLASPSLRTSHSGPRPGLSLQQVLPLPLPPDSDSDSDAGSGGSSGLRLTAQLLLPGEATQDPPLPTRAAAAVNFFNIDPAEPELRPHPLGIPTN
- Assay Protocol: Functional cAMP assay (LANCE Ultra), 5-HT6
- Format: cell-based
- Conditions Used: in words

Molecule	function at 5-HT6
O=S(=O)(NCCCCCCNc1ncc2ccccc2n1)c1cccc2ccccc12	antagonist
O=S(=O)(c1cccc2ccccc12)N1CCN(CCNC2=Nc3ccccc3CN2)CC1	agonist
CC1NC(NCCCCCCNS(=O)(=O)c2c(Cl)ccc3ccccc23)=Nc2ccccc21 (stereo not shown)	agonist
CC1NC(NCCCCCCNS(=O)(=O)c2cccc3ccccc23)=Nc2ccccc21 (stereo not shown)	antagonist

###

- Assayed Target: D2 (Homo sapiens)
- Sequence (P14416 whole entry): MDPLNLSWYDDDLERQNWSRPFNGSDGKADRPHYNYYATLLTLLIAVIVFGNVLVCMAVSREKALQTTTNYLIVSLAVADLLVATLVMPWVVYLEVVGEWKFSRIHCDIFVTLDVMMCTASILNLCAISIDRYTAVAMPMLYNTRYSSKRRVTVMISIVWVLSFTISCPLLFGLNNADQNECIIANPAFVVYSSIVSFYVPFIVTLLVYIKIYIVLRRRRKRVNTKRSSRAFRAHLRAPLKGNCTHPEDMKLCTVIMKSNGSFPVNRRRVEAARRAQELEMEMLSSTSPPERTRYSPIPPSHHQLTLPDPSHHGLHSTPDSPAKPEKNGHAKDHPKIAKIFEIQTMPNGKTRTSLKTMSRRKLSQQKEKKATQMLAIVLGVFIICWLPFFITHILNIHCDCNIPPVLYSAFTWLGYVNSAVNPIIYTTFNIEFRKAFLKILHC
- Assay Protocol: Radioligand binding assay, D2 ([3H]-raclopride)
- Conditions Used: Table 3, unit inferred; 2.5 nM [3H]-raclopride
Exercise: for every item that follows, state its recorded pKi.
Numbers only, as −log10 of the molar value.

Molecule	Value Kind	Recorded Result
O=S(=O)(NCCCCCCNc1ncc2ccccc2n1)c1cccc2ccccc12	pKi	4.14
O=S(=O)(c1cccc2ccccc12)N1CCN(CCNC2=Nc3ccccc3CN2)CC1	pKi	5.13
CC1NC(NCCCCCCNS(=O)(=O)c2c(Cl)ccc3ccccc23)=Nc2ccccc21 (stereo not shown)	pKi	5.72

Moving on to another molecule below.
QUERY: Using the record for CC1NC(NCCCCCCNS(=O)(=O)c2cccc3ccccc23)=Nc2ccccc21 (stereo not shown) , report its pKi.
RESULT: 5.53

###

- System: Feline catus astrocyte (PG-4)
- Assay Protocol: Cytotoxicity, PG-4 astrocytes
- Type: cell-based
- Conditions Used: Felis catus; normal astrocyte line
pIC50: −log10 of the molar value.
Value Kind: pIC50

Molecule	pIC50
CC1NC(NCCCCCCNS(=O)(=O)c2cccc3ccccc23)=Nc2ccccc21 (centres unmarked)	< 4.60

QUERY: Using the record for `O=S(=O)(NCCCCCCNc1ncc2ccccc2n1)c1cccc2ccccc12` , report its pIC50.
RESULT: < 4.60
